Entries annotated with measured combination Emax
system: NCI-H1651 (Lung Adenocarcinoma); experiment: combination Emax (second highest fraction inhibited in the dose matrix, 72 h); higher = more inhibition; extreme values may be limits of the assay

Molecule: CN(CCO)CC[C@H](CSc1ccccc1)Nc1ccc(S(=O)(=O)NC(=O)c2ccc(N3CCC([C@@H](O)c4ccccc4-c4ccc(Cl)cc4)CC3)cc2)cc1S(=O)(=O)C(F)(F)F [AZD4320] + C[C@@H]1COCCN1C2=NC(=NC(=C2)C3(CC3)[S@](=N)(=O)C)C4=C5C=CNC5=NC=C4 [AZD6738] (first compound max 1 µM, 7x7, partner max 10 µM)
Tested Target: NCI-H1651 (Lung Adenocarcinoma)
combination Emax: 0.728
--
Molecule: CN(CCO)CC[C@H](CSc1ccccc1)Nc1ccc(S(=O)(=O)NC(=O)c2ccc(N3CCC([C@@H](O)c4ccccc4-c4ccc(Cl)cc4)CC3)cc2)cc1S(=O)(=O)C(F)(F)F [AZD4320] + C1CN(CCC1(C(=O)N[C@@H](CCO)C2=CC=C(C=C2)Cl)N)C3=NC=NC4=C3C=CN4 [Capivasertib] (first compound max 1 µM, 7x7, partner max 3 µM)
Tested Target: NCI-H1651 (Lung Adenocarcinoma)
combination Emax: 0.193
--
Molecule: COc1nnc2ccc(N3CCC(c4ccc(OCCN5CCN(C)C(=O)[C@H]5C)cc4)CC3)nn12 [AZD5153] + CCN(CCO)CCCOc1ccc2c(Nc3cc(CC(=O)Nc4cccc(F)c4)[nH]n3)ncnc2c1 [AZD2811] (first compound max 1 µM, 7x7, partner max 1 µM)
Tested Target: NCI-H1651 (Lung Adenocarcinoma)
combination Emax: 0.499

====

system: DU-4475 (Breast Carcinoma); assay: Bliss excess, mean over the matrix (fraction); higher = more synergy;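 further: after 72 h of two-drug dosing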
Metric: Bliss excess

Compound: COc1cc2ncnc(Nc3ccc(F)c(Cl)c3)c2cc1OCCCN1CCOCC1 [Gefitinib] + CC(C)n1c(=O)n(C)c2cnc3cc(F)c(-c4ccc(OCCCN5CCCCC5)nc4)cc3c21 [AZD1390] (first compound max 10 µM, 7x7, partner max 0.3 µM)
Result: -0.0427

Compound: Cc1c2c(nn1C)CSCc1cc(n(C)n1)CSc1cc(c3ccccc3c1)OCCCc1c(C(=O)O)n(C)c3c-2c(Cl)ccc13 [AZD5991] + CN(C)CCCOc1ccc(-c2ccc3ncc4c(c3c2)n(C2CCOCC2)c(=O)n4C)cn1 [AZD0156] (first compound max 1 µM, 7x7, partner max 1 µM)
Result: -0.0262

====

tested on: JVM-2 (B-Cell Non-Hodgkin's Lymphoma); experiment: combination Emax (second highest fraction inhibited in the dose matrix, 72 h); higher = more inhibition; extreme values may be limits of the assay
Metric: combination Emax

Compound: COc1nnc2ccc(N3CCC(c4ccc(OCCN5CCN(C)C(=O)[C@H]5C)cc4)CC3)nn12 [AZD5153] + CC1(C)CCC(CN2CCN(c3ccc(C(=O)NS(=O)(=O)c4ccc(NCC5CCOCC5)c([N+](=O)[O-])c4)c(Oc4cnc5[nH]ccc5c4)c3)CC2)=C(c2ccc(Cl)cc2)C1 [Venetoclax] (first compound max 1 µM, 7x7, partner max 1 µM)
Metric: combination Emax
Quantitative Result: 0.739
//
Compound: COc1nnc2ccc(N3CCC(c4ccc(OCCN5CCN(C)C(=O)[C@H]5C)cc4)CC3)nn12 [AZD5153] + CCN(CCO)CCCOc1ccc2c(Nc3cc(CC(=O)Nc4cccc(F)c4)[nH]n3)ncnc2c1 [AZD2811] (first compound max 1 µM, 7x7, partner max 1 µM)
Metric: combination Emax
Quantitative Result: 0.729
